Listing of recorded CC50 by entry.
test description: Cytotoxicity against BHK21 cells by MTT assay
Assay type: cell-based, Mesocricetus auratus
assay conditions: hamster, BHK-21 cells

>>> df
                           molecular_string  recorded_value
0  CC(=O)c1ccc2[nH]c(-c3ccc(C(F)(F)F)cc3)nc2c1        > 100 µM
1  C/C(=N\NC(N)=O)c1ccc2[nH]c(-c3ccc(C(F)(F)F)cc3)nc2c1        > 100 µM

Which value of CC50 has been reported for `COc1ccc(-c2nc3cc(/C(C)=N/NC(N)=O)ccc3[nH]2)c(OC)c1` in the records?
≥ 100 µM

----------
test description: Cytotoxicity against MDBK cells after 48 to 96 hrs by MTT assay
Format: cell-based, Bos taurus
assay conditions: cattle
assay endpoint: CC50

Example results:
>>> df
                                   compound  assay_endpoint  recorded_value
0  C/C(=N\NC(N)=O)c1ccc2[nH]c(-c3ccc(Cl)cc3)nc2c1            CC50        > 100 µM
1  COc1ccc(-c2nc3cc(/C(C)=N/NC(N)=S)ccc3[nH]2)cc1            CC50           13 µM
2  C/C(=N\NC(N)=O)c1ccc2c(c1)nc(-c1ccccc1)n2C1CCCCC1            CC50        > 100 µM
3  C/C(=N\NC(N)=S)c1ccc2c(c1)nc(-c1ccoc1)n2C1CCCCC1            CC50        > 100 µM
4  C/C(=N\NC(N)=O)c1ccc2c(c1)nc(-c1ccc(C(F)(F)F)cc1)n2C1CCCCC1            CC50        > 100 µM

Lab note: next compound to report on.
Which value of CC50 has been reported for C[C@@]1(O)[C@H](O)[C@@H](CO)O[C@H]1n1cnc2c(=O)[nH]c(N)nc21 [2'-B-METHYL-GUANOSINE] in the records?
> 10 µM
